EXPERIMENTAL_TARGET: HuR RRM1/2-ARE^c-fos interaction (Homo sapiens, UniProt Q15717)
Construct: HuR RRM1/2 (residues 18–186)
Sequence (Q15717 18-186): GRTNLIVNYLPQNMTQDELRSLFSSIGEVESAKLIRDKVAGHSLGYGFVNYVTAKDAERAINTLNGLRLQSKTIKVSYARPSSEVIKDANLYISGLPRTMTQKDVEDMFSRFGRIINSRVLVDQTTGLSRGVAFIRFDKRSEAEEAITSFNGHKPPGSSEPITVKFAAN
PROTOCOL_TEXT: FP competition assay, HuR RRM1/2-ARE^c-fos binding
EXPERIMENTAL_PARAMETERS: 50 nM HuR RRM1/2, 2 nM fluorescein-labeled ARE^c-fos; n = 3; read-out: IC50, disruption of HuR RRM1/2-ARE^c-fos binding
MEASURED_PARAMETER: IC50 (µM)
Return type: number; implicit unit µM.

Incoming: Could you tell me which IC50 is on file for CC[C@H](C)/C=C(C)/C=C/C1=CC2=C(Br)C(=O)C(C)(OC(C)=O)C(=O)C2=CO1 (stereo partly shown) [AZA-9, azaphilone-9] ?
Outgoing: 7.4
